test system: 60 cancer cell lines (NCI 60 cancer cell line series); assay: NCI-DTP in vitro cancer screen, sulforhodamine B (SRB) growth inhibition, 48 hour exposure; format: cell-based, human; conditions: Ovarian OVCAR-8 CL6005
Structures can show the parent of a compound that is named as a salt.
parameter measured: sensitivity classification Low(1)/Medium(2)/High(3)

In: Query for 60 cancer cell lines (NCI 60 cancer cell line series): what sensitivity classification Low(1)/Medium(2)/High(3) does the record show for COc1cccc2c1C(=O)c1c(O)c3c(c(O)c1C2=O)C[C@@](O)(C(=O)CO)C[C@@H]3O[C@H]1C[C@H](N)[C@H](O)[C@H](C)O1 [Adriamycin] ?
Out: 2

In: Query for 60 cancer cell lines (NCI 60 cancer cell line series): what sensitivity classification Low(1)/Medium(2)/High(3) does the record show for CC[C@]1(O)C[C@H]2CN(CCc3c([nH]c4ccccc34)[C@@](C(=O)OC)(c3cc4c(cc3OC)N(C=O)[C@H]3[C@@](O)(C(=O)OC)[C@H](OC(C)=O)[C@]5(CC)C=CCN6CC[C@]43[C@@H]65)C2)C1 [Vincristine sulfate] ?
Out: 3

In: Query for 60 cancer cell lines (NCI 60 cancer cell line series): what sensitivity classification Low(1)/Medium(2)/High(3) does the record show for O=C1c2c(O)ccc(O)c2C(=O)c2c(NCCNCCO)ccc(NCCNCCO)c21 [Mitoxantrone] ?
Out: 2

In: Query for 60 cancer cell lines (NCI 60 cancer cell line series): what sensitivity classification Low(1)/Medium(2)/High(3) does the record show for COc1cc([C@@H]2c3cc4c(cc3[C@@H](O[C@@H]3O[C@@H]5CO[C@@H](C)O[C@H]5[C@H](O)[C@H]3O)[C@H]3COC(=O)[C@H]23)OCO4)cc(OC)c1O [Etoposide] ?
Out: 2

In: Query for 60 cancer cell lines (NCI 60 cancer cell line series): what sensitivity classification Low(1)/Medium(2)/High(3) does the record show for CC[C@]1(O)C[C@@H]2CN(CCc3c([nH]c4ccccc34)[C@@](C(=O)OC)(c3cc4c(cc3OC)N(C)[C@H]3[C@@](O)(C(=O)OC)[C@H](OC(C)=O)[C@]5(CC)C=CCN6CC[C@]43[C@@H]65)C2)C1 [Vinblastine sulfate] ?
Out: 2

In: Query for 60 cancer cell lines (NCI 60 cancer cell line series): what sensitivity classification Low(1)/Medium(2)/High(3) does the record show for N.N.[Cl][Pt][Cl] [cisplatin, cis-Diamminedichloroplatinum (II), reference compound] ?
Out: 2

In: Query for 60 cancer cell lines (NCI 60 cancer cell line series): what sensitivity classification Low(1)/Medium(2)/High(3) does the record show for O=C(O)CCCc1ccc(N(CCCl)CCCl)cc1 [Chlorambucil] ?
Out: 2

In: Query for 60 cancer cell lines (NCI 60 cancer cell line series): what sensitivity classification Low(1)/Medium(2)/High(3) does the record show for COc1cccc2c1C(=O)c1c(O)c3c(c(O)c1C2=O)C[C@@](O)(C(=O)CO)C[C@@H]3OC1CC(N)CC(C)O1.Cl (some centres unmarked) [Deoxydoxorubicin] ?
Out: 2

In: Query for 60 cancer cell lines (NCI 60 cancer cell line series): what sensitivity classification Low(1)/Medium(2)/High(3) does the record show for O=c1[nH]cc(F)c(=O)[nH]1 [5-Fluorouracil] ?
Out: 2

In: Query for 60 cancer cell lines (NCI 60 cancer cell line series): what sensitivity classification Low(1)/Medium(2)/High(3) does the record show for COc1cc([C@@H]2c3cc4c(cc3[C@@H](O[C@@H]3O[C@@H]5CO[C@@H](c6cccs6)O[C@H]5[C@H](O)[C@H]3O)[C@H]3COC(=O)[C@H]23)OCO4)cc(OC)c1O [Teniposide] ?
Out: 2

In: Query for 60 cancer cell lines (NCI 60 cancer cell line series): what sensitivity classification Low(1)/Medium(2)/High(3) does the record show for COc1cccc2c1C(=O)c1c(O)c3c(c(O)c1C2=O)C[C@@](O)(C(C)=O)C[C@@H]3O[C@H]1C[C@H](N)[C@H](O)[C@H](C)O1 [Daunorubicin] ?
Out: 2
